- TEST PROTOCOL: neutral red dye uptake cytotoxicity
- Format: cell-based
- CONDITION INFO: human, 2.2.15 cells (confluent cultures), 9 days treatment, read-out: 50% Cell Death CC50
Listed next: entries and their corresponding CC50 at 9 days.
Value expressed in µM; do not type the unit.

{"COMPOUND": "CCN(CC)c1nc(NCc2ccccc2)nc(N/N=C/c2ccccc2O)n1 [Compound 155]", "UNIT LABEL": "µM", "READOUT NUMBER": 59}

Short answer for CC(C)(C)Nc1nc(NCc2ccccc2)nc(N/N=C/c2ccccc2F)n1 [Compound 93] : CC50 at 9 days was 54

----------
Listed next: entries and their corresponding CC50.
- Tested on: 2.2.15 cells
- TEST PROTOCOL: neutral red dye uptake cytotoxicity
- Assay type: cell-based
- CONDITION INFO: 9 days treatment, read-out: 50% Cell Death CC50
- Description: Further, the antiviral effect of any compound must be measured against its toxicity. Cytotoxicity is measured by the neutral red uptake method using the same cells used for antiviral activity. 2b. […] 3b. The cytotoxicity of test compounds was analyzed in a 3.3-fold dilution series as follows. […] The antiviral effect of any compound was evaluated relative to its toxicity. […] 2. […] These wells were used as “blanks” for the plate reader. […]

Before answering, review these 5 worked examples.
{"ITEM SMILES": "Fc1cccc(C=NNc2nc(Nc3ccccc3)nc(N3CCCC3)n2)c1", "RESULT": "> 300 µM"}
{"ITEM SMILES": "CCN(CC)c1nc(NN=Cc2ccc([N+](=O)[O-])cc2)nc(Nc2ccccc2)n1", "RESULT": "> 300 µM"}
{"ITEM SMILES": "Cc1ccc(Nc2nc(NN=Cc3ccccc3)nc(Nc3ccccc3)n2)c(C)c1", "RESULT": "29 µM"}
{"ITEM SMILES": "COc1ccc(Nc2nc(NN=Cc3ccc(OC)cc3OC)nc(Nc3ccccc3)n2)cc1", "RESULT": "7.1 µM"}
{"ITEM SMILES": "O=C(NNc1nc(Nc2ccccc2)nc(Nc2cccc(C(F)(F)F)c2)n1)c1cccc(Br)c1", "RESULT": "> 300 µM"}

Short answer for `C(=Cc1ccccc1)C=NNc1nc(NCc2ccccc2)nc(Nc2ccccc2)n1` : CC50 was > 300 µM

Short answer for `Cc1ccc(Nc2nc(NCc3ccccc3)nc(NN=Cc3cc(Br)cc(Br)c3O)n2)cc1C` : CC50 was > 300 µM

Short answer for `Cc1ccc(Nc2nc(NN=Cc3cccc(I)c3)nc(Nc3ccccc3)n2)cc1` : CC50 was 230 µM
